ASSAY_SUMMARY: Antiproliferative activity against mouse NS-1 cells assessed as cell growth inhibition measured after 72 hrs by resazurin dye based assay
Type: functional
TEST_SETTINGS: NS1, 72 h
TEST_READOUT: IC50
Record the result as a number with its unit.

Worked cases, IC50 given:
COC(=O)CCC(=O)O[C@H]1CCCCCCCCC[C@@H](C)OC(=O)/C=C/[C@H]1O ... 5.9 µM
C[C@@H]1CCCCCCCCC[C@H](OC(=O)CCC(=O)O)C(=O)/C=C/C(=O)O1 ... 3.1 µM

Shifting focus to the compound that follows.
Q) // IC50 lookup, key: "C[C@@H]1C[C@@H](O)CCCCCCC[C@H](O)[C@H](O)/C=C/C(=O)O1"
A) 32 µM
